Where these numbers come from: ChEMBL document CHEMBL5154929

- Measurement notes: Cytotoxicity against human L02 cells measured after 72 hrs by MTT assay
- Type: toxicity, cell-based
log10 of IC50 at 72 h listing for selected compounds.
Parameter value (number): base-10 log of IC50 at 72 h in nM.

// worked examples, log10 of IC50 at 72 h included
Smiles representation	Reported value
CC(=O)OC[C@H]1O[C@@H](n2cc(Cn3c4c(c5ccccc53)C(=O)c3c[n+]([O-])c5ccccc5c3C4=O)nn2)C[C@@H]1OC(C)=O	2.54
O=C1c2c[n+]([O-])c3ccccc3c2C(=O)c2c1c1ccccc1n2Cc1cn([C@@H]2O[C@H](CO)[C@@H](O)[C@H](O)[C@H]2O)nn1	2.62
O=C1c2c[n+]([O-])c3ccccc3c2C(=O)c2c1c1ccccc1n2Cc1cn([C@H]2C[C@H](O)[C@@H](CO)O2)nn1	2.45
O=C1c2c[n+]([O-])c3ccccc3c2C(=O)c2c1c1ccccc1n2CCCCN1CCCCC1	2.79
CC(=O)OC[C@H]1O[C@H](n2cc(Cn3c4c(c5ccccc53)C(=O)c3c[n+]([O-])c5ccccc5c3C4=O)nn2)C[C@@H]1OC(C)=O	3.44

For `O=C1c2c[n+]([O-])c3ccccc3c2C(=O)c2c1c1ccccc1n2CCCCN1CCN(CCO)CC1` the compound record lists log10 of IC50 at 72 h as 2.94

Notebook: `CN(C)CCCn1c2c(c3ccccc31)C(=O)c1c[n+]([O-])c3ccccc3c1C2=O` , log10 of IC50 at 72 h read as 2.69

According to the records, this compound `O=C1c2c[n+]([O-])c3ccccc3c2C(=O)c2c1c1ccccc1n2CCCCN1CCOCC1` displays log10 of IC50 at 72 h of 2.71

Entry `O=C1c2c[n+]([O-])c3ccccc3c2C(=O)c2c1c1ccccc1n2Cc1cn([C@H]2O[C@H](CO)[C@@H](O)[C@H]2O)nn1` ; log10 of IC50 at 72 h = 2.98

Record summary for `CN1CCN(CCCCn2c3c(c4ccccc42)C(=O)c2c[n+]([O-])c4ccccc4c2C3=O)CC1` : reported log10 of IC50 at 72 h = 1.90

Noted for `O=C1c2c[n+]([O-])c3ccccc3c2C(=O)c2c1c1ccccc1n2CCN1CCCC1` : its log10 of IC50 at 72 h reads 2.97
